protocol: Mouse liver microsomal stability of compound in microsomal protein, PBS buffer pH 7.4, NADPH, glucose-6-phosphate and glucose-6-phosphate dehydrogenase media. Aliquotes were taken at 5 time points and after stopping the reaction, supernatants were analyzed using HPLC coupled with a tandem mass spectrometer. The elimination constant, half-life, and intrinsic clearance are determined as results using linear regression analysis. The assay has been performed by Enamine biological services, Bienta Ltd.The protocol is publicly available: dx.doi.org/10.17504/protocols.io.5qpvokdb9l4o/v1
Type: ADME, microsomes, Microsome
particulars: microsomes
Reported Remaining (without cofactor) values for a set of molecules

| molecule | unit.tag | Remaining (without cofactor) |
| --- | --- | --- |
| CC(C)[C@H](Nc1ncnc2[nH]c(C(=O)N[C@H]3CCN(C)C3)cc12)c1ccc2c(c1)S(=O)(=O)CCC2 | % | 97 |
| O=C(Nc1ccccc1)Nc1ccc(C(=O)NC2c3cccc(O)c3CC2C(=O)O)cc1 (centres undefined) | % | 99 |
| CNC(=O)c1cc2c(N[C@@H](c3ccc4c(c3)OCCO4)C(C)C)ncnc2[nH]1 | % | 112 |
| CC(C)[C@@H](Nc1ncnc2[nH]c(-c3cnn(C)c3)cc12)c1ccc2c(c1)S(=O)(=O)NCC2 | % | 92 |
| COc1ccc2c(c1)CCN(c1ncnc3[nH]ccc13)[C@H]2C(C)C | % | 83 |
| Cc1nn(C)cc1-c1cc2c(N[C@H](c3ccc4c(c3)S(=O)(=O)CCC4)C(C)C)ncnc2[nH]1 | % | 104 |
| CC(C)[C@H](Nc1ncnc2[nH]c(-c3cnn(C)c3C#N)cc12)c1ccc2c(c1)S(=O)(=O)CCC2 | % | 90 |
| CC(C)[C@H](Nc1ncnc2[nH]ccc12)c1ccc2c(c1)NC(=O)CO2 | % | 89 |
| CCNC(=O)c1cc2c(N[C@H](c3ccc4c(c3)S(=O)(=O)CCC4)C(C)C)ncnc2[nH]1 | % | 97 |

---

protocol: Mouse liver microsomal stability of compound in microsomal protein, PBS buffer pH 7.4, NADPH, glucose-6-phosphate and glucose-6-phosphate dehydrogenase media. Aliquotes were taken at 5 time points and after stopping the reaction, supernatants were analyzed using HPLC coupled with a tandem mass spectrometer. The elimination constant, half-life, and intrinsic clearance are determined as results using linear regression analysis. The assay has been performed by Enamine biological services, Bienta Ltd.The protocol is publicly available: dx.doi.org/10.17504/protocols.io.5qpvokdb9l4o/v1
Assay type: ADME, microsomes, Microsome
particulars: microsomes
In this section we review reported Remaining values for a set of molecules.

| smiles.data | Remaining |
| --- | --- |
| CCNC(=O)c1cc2c(N[C@H](c3ccc4c(c3)S(=O)(=O)CCC4)C(C)C)ncnc2[nH]1 | 34% |
| COc1ccc([C@@H](Cc2nnn[nH]2)NC(=O)c2ncnc3[nH]ccc23)cc1 | 96% |
| CC(C)[C@H](Nc1ncnc2[nH]c(-c3cnn(C)c3C#N)cc12)c1ccc2c(c1)OCCO2 | 2% |
| CC(C)[C@H](Nc1ncnc2[nH]ccc12)c1ccc2c(c1)NC(=O)CO2 | 54% |
| CC(C)[C@@H](Nc1ncnc2[nH]cc(C(N)=O)c12)c1ccc2c(c1)OCCO2 | 9% |
| CC(C)(C)[C@H](Nc1ncnc2[nH]c(-c3cnn(CC(N)=O)c3)cc12)c1ccc2c(c1)OCCO2 | 48% |
| CC(C)[C@@H](Nc1ncnc2[nH]c(C(=O)N[C@H]3CCN(C)C3)cc12)c1ccc2c(c1)S(=O)(=O)CCC2 | 92% |
| C[C@@H](C(=O)O)[C@@H](NC(=O)c1ncnc2[nH]ccc12)c1ccc(Br)cc1 | 94% |
| CC(C)[C@H](Nc1ncnc2[nH]cc(C(=O)NC3CC3)c12)c1ccc2c(c1)S(=O)(=O)CCC2 | 50% |

---

Quick reference: Remaining of the listed items.
protocol: Mouse liver microsomal stability of compound in microsomal protein, PBS buffer pH 7.4, NADPH, glucose-6-phosphate and glucose-6-phosphate dehydrogenase media. Aliquotes were taken at 5 time points and after stopping the reaction, supernatants were analyzed using HPLC coupled with a tandem mass spectrometer. The elimination constant, half-life, and intrinsic clearance are determined as results using linear regression analysis. The assay has been performed by Enamine biological services, Bienta Ltd.The protocol is publicly available: dx.doi.org/10.17504/protocols.io.5qpvokdb9l4o/v1
Format: ADME, microsomes, Microsome
particulars: microsomes
property.label: Remaining (%)

| smiles.data | property.label | observed.value |
| --- | --- | --- |
| CC(C)[C@H](Nc1ncnc2[nH]c(-c3cnn(C)c3C#N)cc12)c1ccc2c(c1)NC(=O)CO2 | Remaining | 27 |
| C[C@H](C(=O)O)[C@@H](NC(=O)c1ncnc2[nH]ccc12)c1ccc(Br)cc1 | Remaining | 111.226 |
| CC(C)[C@H](Nc1ncnc2[nH]c(C(=O)N[C@@H]3CCN(C)C3)cc12)c1ccc2c(c1)S(=O)(=O)CCC2 | Remaining | 104 |
| CCNC(=O)c1cc2c(N[C@H](c3ccc4c(c3)OCCO4)C(C)C)ncnc2[nH]1 | Remaining | 47 |

---

protocol: Human liver microsomal stability of compound in microsomal protein, PBS buffer pH 7.4, NADPH, glucose-6-phosphate and glucose-6-phosphate dehydrogenase media. Aliquotes were taken at 5 time points and after stopping the reaction, supernatants were analyzed using HPLC coupled with a tandem mass spectrometer. The elimination constant, half-life, and intrinsic clearance are determined as results using linear regression analysis. The assay has been performed by Enamine biological services, Bienta Ltd.The protocol is publicly available: dx.doi.org/10.17504/protocols.io.5qpvokdb9l4o/v1
Type: ADME, microsomes, Microsome
particulars: liver microsomes
property.label: log10 half-life (log10 of the value in h)

| smiles.data | log10 half-life |
| --- | --- |
| CC(C)[C@H](Nc1ncnc2[nH]c(-c3cnn(CC(N)=O)c3)cc12)c1ccc2c(n1)OCCO2 | 0.35 |
| CC(C)[C@@H](Nc1ncnc2[nH]c(-c3cnn(CC(N)=O)c3)cc12)c1ccc2c(n1)OCCO2 | 0.30 |
| CCNC(=O)c1cc2c(N[C@@H](c3ccc4c(c3)S(=O)(=O)NCC4)C(C)C)ncnc2[nH]1 | -0.48 |
| C[C@@H](C(=O)O)[C@@H](NC(=O)c1ncnc2[nH]ccc12)c1ccc(Br)cc1 | 0.75 |
| CC(C)[C@@H](Nc1ncnc2[nH]c(-c3cnn(C)c3C#N)cc12)c1ccc2c(n1)NC(=O)CO2 | -0.40 |
| CC(C)[C@@H](Nc1ncnc2[nH]ccc12)c1ccc2c(c1)NC(=O)CO2 | 0.12 |

---

protocol: Mouse liver microsomal stability of compound in microsomal protein, PBS buffer pH 7.4, NADPH, glucose-6-phosphate and glucose-6-phosphate dehydrogenase media. Aliquotes were taken at 5 time points and after stopping the reaction, supernatants were analyzed using HPLC coupled with a tandem mass spectrometer. The elimination constant, half-life, and intrinsic clearance are determined as results using linear regression analysis. The assay has been performed by Enamine biological services, Bienta Ltd.The protocol is publicly available: dx.doi.org/10.17504/protocols.io.5qpvokdb9l4o/v1
Type: ADME, microsomes, Microsome
particulars: microsomes
Listed here: items and their measured CLint.

| smiles.data | CLint / µL/min/mg |
| --- | --- |
| CC(C)[C@@H](Nc1ncnc2[nH]c(-c3cnn(C)c3)cc12)c1ccc2c(c1)S(=O)(=O)CCC2 | 140 |
| CNC(=O)c1cc2c(N[C@@H](c3ccc4c(c3)NC(=O)CO4)C(C)C)ncnc2[nH]1 | 33 |
| CC(C)[C@@H](Nc1ncnc2[nH]c(-c3cnn(CC(N)=O)c3)cc12)c1ccc2c(c1)OCCO2 | 42 |
| CC(C)[C@@H](Nc1ncnc2[nH]c(-c3cnn(CC(=O)N(C)C)c3)cc12)c1ccc2c(c1)OCCO2 | 45 |
| CC(C)(C)[C@@H](Nc1ncnc2[nH]c(-c3cnn(CC(N)=O)c3)cc12)c1ccc2c(n1)OCCO2 | 30 |
| CNC(=O)Cn1cc(-c2cc3c(N[C@@H](c4ccc5c(c4)S(=O)(=O)CCC5)C(C)C)ncnc3[nH]2)cn1 | 44 |
| CC(C)(C)[C@@H](Nc1ncnc2[nH]c(-c3cnn(CC(N)=O)c3)cc12)c1ccc2c(c1)OCCO2 | 39 |
| CC(C)[C@@H](Nc1ncnc2[nH]c(-c3cnn(C)c3C#N)cc12)c1ccc2c(n1)NC(=O)CO2 | 189 |
| CC(C)[C@@H](Nc1ncnc2[nH]c(-c3cnn(CC(N)=O)c3)cc12)c1ccc2c(n1)OCCO2 | 9 |
| CNCc1cc(-c2cc3c(N[C@@H](c4ccc5c(c4)S(=O)(=O)CCC5)C(C)C)ncnc3[nH]2)co1 | 54 |
| CNC(=O)c1c[nH]c2ncnc(N[C@@H](c3ccc4c(c3)S(=O)(=O)CCC4)C(C)C)c12 | 113 |
| CC(C)[C@@H](Nc1ncnc2[nH]c(-c3cnn(C)c3C#N)cc12)c1ccc2c(c1)NC(=O)CO2 | 147 |
| CC(C)[C@@H](Nc1ncnc2[nH]c(-c3cnn(C)c3C#N)cc12)c1ccc2c(c1)OCCO2 | 129 |
| CC(C)[C@@H](Nc1ncnc2[nH]c(-c3cnn(CC(N)=O)c3)cc12)c1ccc2c(c1)S(=O)(=O)CCC2 | 96 |
| CNC(=O)c1cc2c(N[C@@H](c3ccc4c(c3)S(=O)(=O)CCC4)C(C)C)ncnc2[nH]1 | 23 |
| CCNC(=O)c1cc2c(N[C@@H](c3ccc4c(c3)OCCO4)C(C)C)ncnc2[nH]1 | 72 |
| CC(C)[C@@H](Nc1ncnc2[nH]ccc12)c1ccc2c(c1)NC(=O)CO2 | 80 |
| CCNC(=O)c1cc2c(N[C@@H](c3ccc4c(c3)S(=O)(=O)CCC4)C(C)C)ncnc2[nH]1 | 54 |
| CC(C)[C@@H](Nc1ncnc2[nH]c(-c3cnn(C)c3C#N)cc12)c1ccc2c(c1)S(=O)(=O)CCC2 | 709 |

// provenance: ChEMBL document CHEMBL5442168
